# experimentalSystem: ETS1 (UniProt P14921)
# Sequence: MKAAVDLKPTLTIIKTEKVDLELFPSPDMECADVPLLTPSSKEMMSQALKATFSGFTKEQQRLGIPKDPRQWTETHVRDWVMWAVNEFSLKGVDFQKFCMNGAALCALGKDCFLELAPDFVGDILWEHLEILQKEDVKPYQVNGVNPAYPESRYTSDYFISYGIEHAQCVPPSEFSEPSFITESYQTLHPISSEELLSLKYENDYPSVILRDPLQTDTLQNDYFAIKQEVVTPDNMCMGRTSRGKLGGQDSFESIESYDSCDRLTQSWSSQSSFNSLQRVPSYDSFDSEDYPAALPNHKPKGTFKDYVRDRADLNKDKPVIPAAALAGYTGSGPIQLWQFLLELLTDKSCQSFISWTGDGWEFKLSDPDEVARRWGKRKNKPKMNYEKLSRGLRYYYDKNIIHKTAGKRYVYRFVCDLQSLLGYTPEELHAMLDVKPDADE
# experimentDescription: ETS1 binding intensity (PBM fluorescence) in presence of RUNX1, normalised to ETS1-only experiment (arbitrary fluorescence units); higher = stronger binding
# studyConditions: ETS1 concentration 1 nM; RUNX1 concentration 25 nM
Use T when the recorded ETS1 binding intensity is no lower than 3000; use F when it is lower.

Ask: Could you tell me if the measured ETS1 binding intensity of CACCTGGCCCGGACGGCTGCGGTCTGGAGGGCTGTC reaches 3000 or more?
Reply: F

Ask: ETS1 binding intensity >= 3000 for TTAGGCAGAGCTCATTTCCGCCCACATCAAAAGTAA ?
Reply: F

Ask: Does GAACTGAAGAAGGCAGGAAGCCACAGGCTCCTGGGT have a reported ETS1 binding intensity of at least 3000?
Reply: F

Ask: Identify whether the reported ETS1 binding intensity of the following sequence is 3000 or greater: TGACGGCCAGGAAGCCTGAAGCCGCAGGGGCCGCCG
Reply: F

Ask: Reported ETS1 binding intensity at or above 3000? TTTGTAAGAGGAGGAAGTGGTTTGTAAGAGGAGAAA
Reply: T

Ask: Does the reported ETS1 binding intensity for GTCTTAGGTCGGAAGTCTGTGGTCCCTGTTCACATG fall at or above the 3000 mark?
Reply: F
